The reported measurements were obtained from the supplement of paper PMC11780869.

Each entry below lists one item and its recorded cleaved RNA product abundance value.
System: Bacillus subtilis
Assay: cleaved RNA product abundance (RNA/gDNA barcode ratio) relative to median wild-type variant (ratio to wild type); higher = more accumulation of the downstream cleavage product
Details: experiment (reporter, strain, medium): exp 4a: truncated aprE reporter, strain BJT201 with 2% xylose (RNase J1 expressed); cleavage site: cggR-gapA (positions -7 to +36 mutated)
measured metric: cleaved RNA product abundance

> print(dat)
                           polymer.sequence                measured.metric  recorded.result
1  ACAGACGAAGGAGCCGCAAAGATGTTATTACGGGATGAATAATCCCTCAATATAAATATCTCTCACTTATTTAAA  cleaved RNA product abundance            0.401
2  ACAGACGAAGGAGCCGCAAAGAAGTTATTAAGGGATGGATAATCCATCAATATAAATATCTCTCACTTATTTAAA  cleaved RNA product abundance            0.189
3  ACAGACGAAGGAGCCGCAAAGAAGTTATTAAGACATGAATAATCCCTCAATATAAATATCTCTCACTTATTTAAA  cleaved RNA product abundance            0.132
4  ACAGACGAAGGAGCCGCAAAGAAGTTATTAAGGGATCAATAATCTATCAATATAAATATCTCTCACTTATTTAAA  cleaved RNA product abundance            0.209
5  ACAGACGAAGGAGCCGCAAAGAAGTTATTGAGGGATGAATTATCCCTCAATATAAATATCTCTCACTTATTTAAA  cleaved RNA product abundance           0.0896
6  ACAGACGAAGGAGCCGCAAAGAAGTTATTAAGGGATGAATAATACCTCAATTTAAATATCTCTCACTTATTTAAA  cleaved RNA product abundance           0.0904
7  ACAGACGAAGGAGCCGCGAAGAAGTTATTAAGGGATGAATAATTCCTCAATATAAATATCTCTCACTTATTTAAA  cleaved RNA product abundance            0.684
8  ACAGACGAAGGAGCCGCAAAGAGGTTAATAAGGGATGAATAATCCCTCAATATAAATATCTCTCACTTATTTAAA  cleaved RNA product abundance            0.363
